What melting temperature was measured for each of the following?
- Tested on: HeLa Kyoto;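 further: HeLa Kyoto cells synchronized by double thymidine or nocodazole block, proteins quantified by TMT10plex mass spectrometry, three independent biological replicates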
- protocol_description: melting temperature (median over replicates), in situ; higher = more thermally stable
- assay_setup: cell cycle stage: mitosis
Answers are plain numbers, in °C.

sequence_string	result_unit	melting temperature
MAEKFDCHYCRDPLQGKKYVQKDGHHCCLKCFDKFCANTCVECRKPIGADSKEVHYKNRFWHDTCFRCAKCLHPLANETFVAKDNKILCNKCTTREDSPKCKGCFKAIVAGDQNVEYKGTVWHKDCFTCSNCKQVIGTGSFFPKGEDFYCVTCHETKFAKHCVKCNKAITSGGITYQDQPWHADCFVCVTCSKKLAGQRFTAVEDQYYCVDCYKNFVAKKCAGCKNPITGKRTVSRVSHPVSKARKPPVCHGKRLPLTLFPSANLRGRHPGGERTCPSWVVVLYRKNRSLAAPRGPGLVKAPVWWPMKDNPGTTTASTAKNAP [FHL1]	°C	58.5
MAVATAAAVLAALGGALWLAARRFVGPRVQRLRRGGDPGLMHGKTVLITGANSGLGRATAAELLRLGARVIMGCRDRARAEEAAGQLRRELRQAAECGPEPGVSGVGELIVRELDLASLRSVRAFCQEMLQEEPRLDVLINNAGIFQCPYMKTEDGFEMQFGVNHLGHFLLTNLLLGLLKSSAPSRIVVVSSKLYKYGDINFDDLNSEQSYNKSFCYSRSKLANILFTRELARRLEGTNVTVNVLHPGIVRTNLGRHIHIPLLVKPLFNLVSWAFFKTPVEGAQTSIYLASSPEVEGVSGRYFGDCKEEELLPKAMDESVARKLWDISEVMVGLLK [RDH14]	°C	51.6
MDPFLVLLHSVSSSLSSSELTELKFLCLGRVGKRKLERVQSGLDLFSMLLEQNDLEPGHTELLRELLASLRRHDLLRRVDDFEAGAAAGAAPGEEDLCAAFNVICDNVGKDWRRLARQLKVSDTKIDSIEDRYPRNLTERVRESLRIWKNTEKENATVAHLVGALRSCQMNLVADLVQEVQQARDLQNRSGAMSPMSWNSDASTSEAS [FADD]	°C	49.4
MSGGRAPAVLLGGVASLLLSFVWMPALLPVASRLLLLPRVLLTMASGSPPTQPSPASDSGSGYVPGSVSAAFVTCPNEKVAKEIARAVVEKRLAACVNLIPQITSIYEWKGKIEEDSEVLMMIKTQSSLVPALTDFVRSVHPYEVAEVIALPVEQGNFPYLQWVRQVTESVSDSITVLP [CUTA]	°C	54.8

Now let's try a different one.
Enquiry: Recorded melting temperature of MAPRRVRSFLRGLPALLLLLLFLGPWPAASHGGKYSREKNQPKPSPKRESGEEFRMEKLNQLWEKAQRLHLPPVRLAELHADLKIQERDELAWKKLKLDGLDEDGEKEARLIRNLNVILAKYGLDGKKDARQVTSNSLSGTQEDGLDDPRLEKLWHKAKTSGKFSGEELDKLWREFLHHKEKVHEYNVLLETLSRTEEIHENVISPSDLSDIKGSVLHSRHTELKEKLRSINQGLDRLRRVSHQGYSTEAEFEEPRVIDLWDLAQSANLTDKELEAFREELKHFEAKIEKHNHYQKQLEIAHEKLRHAESVGDGERVSRSREKHALLEGRTKELGYTVKKHLQDLSGRISRARHNEL [LRPAP1] , please.
Return: 54.1
